target-of-assay: C-Raf kinase (SEQ. ID NO: 3) (Homo sapiens (Human), UniProt P04049, Y340D/Y341D)
Sequence (P04049 307-648 Y340D/Y341D): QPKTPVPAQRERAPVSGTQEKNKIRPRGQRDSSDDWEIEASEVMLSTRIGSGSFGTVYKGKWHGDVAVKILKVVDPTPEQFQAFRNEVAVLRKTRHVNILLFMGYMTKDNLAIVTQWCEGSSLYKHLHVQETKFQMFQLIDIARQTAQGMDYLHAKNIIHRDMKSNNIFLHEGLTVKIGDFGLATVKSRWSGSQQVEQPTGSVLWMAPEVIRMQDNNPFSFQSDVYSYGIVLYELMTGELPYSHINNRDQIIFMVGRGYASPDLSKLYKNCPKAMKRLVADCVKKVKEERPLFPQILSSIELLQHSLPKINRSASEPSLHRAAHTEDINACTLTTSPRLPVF
test-name: Biochemical Assay for C-Raf (1)
cond: Table J, assay version (1); read-out: CRAF (1) IC50
pIC50: −log10 of the molar value.
parameter-measured: pIC50

# count of solved cases: 5
| smiles-input | target-of-assay | pIC50 |
| --- | --- | --- |
| Cc1ncc(NC(=O)c2ccnc(C(C)(C)C#N)c2)cc1-c1cccc(-c2ccnc(N)n2)c1 | C-Raf kinase (SEQ. ID NO: 3) (Homo sapiens (Human), UniProt P04049, Y340D/Y341D) | 6.30 to 7.00 |
| Cc1ccc(NC(=O)c2ccnc(C(C)(C)C#N)c2)cc1-c1ccnc(-c2ccnc(NC(=O)C(C)(C)C)c2)c1 | C-Raf kinase (SEQ. ID NO: 3) (Homo sapiens (Human), UniProt P04049, Y340D/Y341D) | 6.30 to 7.00 |
| COCC(=O)Nc1cc(-c2cc(-c3cc(NC(=O)c4ccnc(C(C)(C)C#N)c4)ccc3C)ccn2)ccn1 | C-Raf kinase (SEQ. ID NO: 3) (Homo sapiens (Human), UniProt P04049, Y340D/Y341D) | ≥ 7.00 |
| CNC(=O)c1cc(-c2cc(-c3cc(NC(=O)c4ccnc(C(F)(F)F)c4)ccc3F)cc(C)n2)ccn1 | C-Raf kinase (SEQ. ID NO: 3) (Homo sapiens (Human), UniProt P04049, Y340D/Y341D) | ≥ 7.00 |
| CC(=O)Nc1cc(-c2cc(-c3cc(NC(=O)c4ccnc(C(F)(F)F)c4)ccc3C)cc(N3CCOCC3)n2)ccn1 | C-Raf kinase (SEQ. ID NO: 3) (Homo sapiens (Human), UniProt P04049, Y340D/Y341D) | ≥ 7.00 |

// input: 2 compounds below; output: pIC50 for each
1. Cc1cc(F)c(NC(=O)c2ccnc(C3(C#N)CC3)c2)cc1-c1ccnc(-c2ccnc(NC(=O)C3CC3)c2)n1
2. CNC(=O)c1cc(-c2cnnc(-c3cc(NC(=O)c4ccnc(C(C)(C)F)c4)cnc3C)c2)ccn1

Response:
1. ≥ 7.00
2. 6.30 to 7.00

---

Would you mind telling me the reported pIC50 of each entry?
target-of-assay: C-Raf kinase (SEQ. ID NO: 3) (Homo sapiens (Human), UniProt P04049, Y340D/Y341D)
test-name: Biochemical Assay for C-Raf (2)
cond: Table J, biochemical assay (2); read-out: CRAF (2)
pIC50: −log10 of the molar value.

| smiles-input | recorded-result |
| --- | --- |
| CC(C)(F)c1cc(C(=O)Nc2ccc(F)c(-c3ccnc(-c4ccnc(C(N)=O)c4)c3)c2)ccn1 | ≥ 7.00 |
| CNC(=O)c1cc(-c2cc(-c3cc(NC(=O)c4ccnc(C5(C#N)CC5)c4)cnc3C)ccn2)ccn1 | ≥ 7.00 |

Now for another entry.
Query: Look up pIC50 for this molecule: Cc1ccc(NC(=O)c2ccnc(C3CC3)c2)cc1-c1ccnc(-c2ccnc(NC(=O)C3CC3)c2)c1
Response: ≥ 7.00

---

target-of-assay: A-Raf kinase (SEQ. ID No: 1) (Homo sapiens (Human), UniProt P10398, Y301D/Y302D)
Sequence (P10398 other isoform, or with tags, fused parts or gaps Y301D (already in the parent)/Y302D (already in the parent)): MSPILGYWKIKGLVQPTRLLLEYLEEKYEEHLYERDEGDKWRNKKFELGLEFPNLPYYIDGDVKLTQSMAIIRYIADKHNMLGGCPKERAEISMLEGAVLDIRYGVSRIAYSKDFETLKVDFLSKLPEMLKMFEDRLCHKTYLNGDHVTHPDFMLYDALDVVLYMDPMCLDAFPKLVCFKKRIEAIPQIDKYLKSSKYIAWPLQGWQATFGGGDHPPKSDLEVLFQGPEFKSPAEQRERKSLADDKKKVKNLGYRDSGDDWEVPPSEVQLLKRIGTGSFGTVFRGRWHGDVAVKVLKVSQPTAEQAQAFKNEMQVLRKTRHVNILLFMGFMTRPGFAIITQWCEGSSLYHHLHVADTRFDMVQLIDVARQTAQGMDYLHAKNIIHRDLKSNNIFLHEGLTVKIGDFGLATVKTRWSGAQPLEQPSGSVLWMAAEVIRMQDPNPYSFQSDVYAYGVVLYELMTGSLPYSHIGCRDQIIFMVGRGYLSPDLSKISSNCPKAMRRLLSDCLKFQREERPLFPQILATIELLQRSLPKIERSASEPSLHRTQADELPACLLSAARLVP
test-name: Biochemical Assay for A-Raf (1)
cond: Table J, assay version (1); read-out: ARAF (1) IC50
parameter-measured: IC50

# return IC50 for each item in the list
1. COC(=O)Nc1cc(-c2cnnc(-c3cc(NC(=O)c4cccc(C(C)(C)C#N)c4)ccc3C)c2)ccn1
2. Cc1cc(F)c(NC(=O)c2ccnc(C(C)(C)F)c2)cc1-c1ccnc(-c2ccnc(NC(=O)C3CC3)c2)c1
3. COC(=O)Nc1cc(-c2cccc(-c3cc(NC(=O)c4ccnc(C5CC5)c4)cnc3C)c2)ccn1
4. CNC(=O)c1cc(-c2cnnc(-c3cc(NC(=O)c4ccnc(C(C)(C)C#N)c4)ccc3C)c2)ccn1
5. COC(=O)Nc1cc(-c2cc(-c3cc(NC(=O)c4ccnc(C(C)(C)C#N)c4)cnc3C)ccn2)ccn1
6. CNC(=O)c1cc(-c2cnnc(-c3cc(NC(=O)c4ccnc(C(F)(F)F)c4)cnc3C)c2)ccn1
7. COCC(=O)Nc1cc(-c2nccc(-c3cc(NC(=O)c4ccnc(C(F)(F)F)c4)ccc3C)n2)ccn1
8. CCNC(=O)c1cc(-c2cc(-c3cc(NC(=O)c4ccnc(C(C)(C)C#N)c4)ccc3C)ccn2)ccn1

Response:
1: 1 to 10 µM; 2: 1 to 10 µM; 3: 1 to 10 µM; 4: 1 to 10 µM; 5: 1 to 10 µM; 6: 1 to 10 µM; 7: 1 to 10 µM; 8: 1 to 10 µM

For each listed entry, give its IC50.
1. COC1(C(=O)Nc2cc(-c3cccc(-c4cc(NC(=O)c5ccnc(C(C)(C)C#N)c5)ccc4C)c3)ncn2)CC1
2. CNC(=O)c1cc(-c2cncc(-c3cc(C(=O)Nc4cnn(C(C)C)c4)ccc3C)n2)ccn1
3. Cc1cc(F)c(NC(=O)c2ccnc(C3(C#N)CC3)c2)cc1-c1ccnc(-c2ccnc(NC(=O)C3CC3)c2)n1
4. Cc1ccc(NC(=O)c2ccnc(C(F)(F)F)c2)cc1-c1cncc(-c2ccnc(N)c2)n1
5. Cc1ccc(NC(=O)c2ccnc(C(F)F)c2)cc1-c1ccnc(-c2ccnc(NC(=O)C3CC3)c2)n1
6. Cc1ccc(NC(=O)c2ccnc(C(F)(F)F)c2)cc1-c1ccnc(-c2ccnc(NC(=O)CN(C)C)c2)c1
7. CCC(=O)Nc1cc(-c2cccc(-c3cc(NC(=O)c4ccnc(C(C)(C)C#N)c4)cnc3C)n2)ccn1

Response:
1. 1 to 10 µM
2. 1 to 10 µM
3. 0.5 to 1 µM
4. 1 to 10 µM
5. 0.5 to 1 µM
6. 1 to 10 µM
7. 1 to 10 µM
